Cited source for all entries: PubChem BioAssay (NCI)

Provide the reported TGI of each item.
System: MALME-3M melanoma
Test: NCI tumour cell line growth inhibition, 48 h
Lab book: enter the figure in µM, no units written.

[in] Input `Cn1ccnc1Oc1ccc(Cl)cc1` , output reported TGI.
[out] 10.2

[in] Report TGI for OC(c1cccnc1Cl)c1nc2ccccc2c2ccnc(Cl)c12 (stereo not given)
[out] 78.2

[in] Identify TGI associated with the compound CC1C=CC(OC(=O)C(C)(O)CCC(O)(C(=O)OC2CC(O)C(C(C)C)CC2(C)O)C(C)C)(C(C)C)CC1 (stereo not given)
[out] 1.45

[in] Could you please provide reported TGI for `O=C(c1ccco1)N(C(=O)N1CCN(c2ccccc2)CC1)S(=O)(=O)c1ccccc1` ? Thanks!
[out] 99.8
